The measurements presented in this section are drawn from ChEMBL document CHEMBL3596134.

# protocolDetails: Cmax in dog at 1 mg/kg, po
# Type: ADME, organism-based, Canis lupus familiaris
# Parameters: dose 1 mg/kg, route oral
# measurementParameters: in vivo
measureName: Cmax (ng/mL)
Give bare numbers, in ng/mL.

Reported Cmax of `Cc1c(F)cccc1CCCCOc1ccc(C#Cc2ccc(F)c3c(CCCC(=O)O)c(C)n(CCCC(=O)O)c23)cc1` : 3690

---

# protocolDetails: Oral bioavailability in rat at 1 mg/kg
# Type: ADME, organism-based
# measurementParameters: in vivo
measureName: bioavailability (%)
One number for each entry, in %.

Reported bioavailability of `Cc1c(F)cccc1CCCCOc1ccc(C#Cc2ccc(F)c3c(CCCC(=O)O)c(C)n(CCCC(=O)O)c23)cc1` : 35

---

# protocolDetails: Ratio of drug level in lung to plasma in guinea pig at 3 mg/kg, po measured over 7 days
# Format: ADME, organism-based, Cavia porcellus
# measurementParameters: lung and plasma
measureName: Kp at 168 h
Numbers only.

Reported Kp at 168 h of `Cc1c(F)cccc1CCCCOc1ccc(C#Cc2ccc(F)c3c(CCCC(=O)O)c(C)n(CCCC(=O)O)c23)cc1` : 8
